These measurements were taken from BigSolDB 2.1.

# applied conditions: in DMF, 318.15 K
endpoint label: solubility (mole fraction)

solubility (mole fraction) reading for CN1CCN(C2=Nc3cc(Cl)ccc3Nc3ccccc32)CC1 : 0.141

====

# applied conditions: in methanol, 278.15 K
endpoint label: solubility (mole fraction)
The answer should be a number; do not append a unit.

solubility (mole fraction) reading for CN1CCN(C2=Nc3cc(Cl)ccc3Nc3ccccc32)CC1 : 0.00633

====

# applied conditions: in n-butanol, 293.15 K
endpoint label: solubility (mole fraction)
The answer should be a number; do not append a unit.

solubility (mole fraction) reading for CN1CCN(C2=Nc3cc(Cl)ccc3Nc3ccccc32)CC1 : 0.0113

====

# applied conditions: in ethyl acetate, 313.15 K
endpoint label: solubility (mole fraction)
The answer should be a number; do not append a unit.

solubility (mole fraction) reading for CN1CCN(C2=Nc3cc(Cl)ccc3Nc3ccccc32)CC1 : 0.0232

====

# applied conditions: in isopropanol, 288.15 K
endpoint label: solubility (mole fraction)
The answer should be a number; do not append a unit.

solubility (mole fraction) reading for CN1CCN(C2=Nc3cc(Cl)ccc3Nc3ccccc32)CC1 : 0.00367

====

# applied conditions: in DMF, 308.15 K
endpoint label: solubility (mole fraction)
The answer should be a number; do not append a unit.

solubility (mole fraction) reading for CN1CCN(C2=Nc3cc(Cl)ccc3Nc3ccccc32)CC1 : 0.129

====

# applied conditions: in 2-butanone, 288.15 K
endpoint label: solubility (mole fraction)

solubility (mole fraction) reading for CN1CCN(C2=Nc3cc(Cl)ccc3Nc3ccccc32)CC1 : 0.0274

====

# applied conditions: in isopentanol, 278.15 K
endpoint label: solubility (mole fraction)
The answer should be a number; do not append a unit.

solubility (mole fraction) reading for CN1CCN(C2=Nc3cc(Cl)ccc3Nc3ccccc32)CC1 : 0.0083

====

# applied conditions: in ethanol, 313.15 K
endpoint label: solubility (mole fraction)
The answer should be a number; do not append a unit.

solubility (mole fraction) reading for CN1CCN(C2=Nc3cc(Cl)ccc3Nc3ccccc32)CC1 : 0.0108

====

# applied conditions: in sec-butanol, 278.15 K
endpoint label: solubility (mole fraction)
The answer should be a number; do not append a unit.

solubility (mole fraction) reading for CN1CCN(C2=Nc3cc(Cl)ccc3Nc3ccccc32)CC1 : 0.0046
